experiment-summary: MTT cytotoxicity assay; also: test concentration or dose not given here
conditions-used: human
measurement-name: viability at 24 h

O=C(NCCCCCCNc1ccnc2cc(Cl)ccc12)Nc1nc2ccc(Cl)cc2s1: 72%
O=C(NCCCNc1ccnc2cc(Cl)ccc12)Nc1nc2ccccc2s1: 100%
CC(CNc1ccnc2cc(Cl)ccc12)NC(=O)Nc1nc2ccc(Br)cc2s1 (stereo not shown): 19%
Cc1ccc2nc(NC(=O)NCCCNc3ccnc4cc(Cl)ccc34)sc2c1: 93%
O=C(NCCNc1ccnc2cc(Cl)ccc12)Nc1nc2ccc(Br)cc2s1: 48%
O=C(NNc1ccnc2cc(Cl)ccc12)Nc1nc2ccccc2s1: 75%
Cc1ccc2nc(NC(=O)NC(C)CNc3ccnc4cc(Cl)ccc34)sc2c1 (stereo not shown): 96%
